Data origin, for the record: the supplement of paper PMC10567573

# protein stability index values compiled below
B1: PCDHGA10 (parent)
chain: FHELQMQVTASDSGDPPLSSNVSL

Variants of: B1
procedureDetails: protein stability index of a GFP-peptide fusion (GPS, HEK-293T) (PSI 1-6); higher = more stable;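 further: lentivirally expressed fusions sorted by FACS into six bins by GFP to DsRed ratio, PSI derived from sequencing read proportions per bin multiplied by bin number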
conditionNotes: c terminus: a fixed tail appended
Reply briefly: the number, and no unit.

Prompt: Using the record for N21D , report its protein stability index.
Response: 2.5

Prompt: Any idea what protein stability index was measured for E3G ?
Response: 2.69

Prompt: protein stability index for S20K ?
Response: 1.85

Prompt: Field request: protein stability index | item: N21E
Response: 2.61

Prompt: I'd like to know its protein stability index. The variant in question is S13Y
Response: 1.88
